Measured melting point, listed per entry for reference.

Worked cases, answers included:
>  <MOLECULE>
CC(=O)Nc1cnc(-c2ccc(CC(C)N3CC(c4cccc(Cl)c4)OC3=O)cc2)o1 (stereo not given)

>  <melting point>
78 to 88 °C

$$$$
>  <MOLECULE>
CC(C(=O)NCc1ccc(C(C)(C)C)cc1)c1ccc(NS(C)(=O)=O)c(F)c1 (stereo not given)

>  <melting point>
52 to 54 °C

$$$$
>  <MOLECULE>
CCC(CC)Nc1c([N+](=O)[O-])cc(C)c(COC(C)=O)c1[N+](=O)[O-]

>  <melting point>
47 to 49 °C

$$$$
>  <MOLECULE>
Clc1cc2nc(Br)c(Br)nc2cc1Cl

>  <melting point>
169 to 170 °C

$$$$
>  <MOLECULE>
C=C(C)C(=O)N(SC1CCCCC1)c1ccccc1

>  <melting point>
56 to 56.5 °C

$$$$

Query :: Determine from records and report melting point for "CC(C)(C)Sc1c(CC(C)(C)C(=O)O)n(Cc2ccc(Cl)cc2)c2ccc(OCc3cccc(Cl)n3)cc12"
Result :: 206 to 207 °C

Query :: Determine from records and report melting point for Nc1ccn(C2OC(CO)C(O)C2O)c(=O)c1Cl (stereo not given)
Result :: 197 to 199 °C
